This collection of values is drawn from the supplement of paper PMC10065799.

- Tested on: AncSZ
- experiment: phosphorylation enrichment, bacterial display (enrichment ratio); higher = better substrate or ligand; peptides without Tyr show the background
Given measured phosphorylation enrichment, output y if it is greater than or equal to 0.8 and n if not.

These recorded examples may help you get a feel for the data.
Task: Given the entry RDSQLYAVDFE [MRPS34_Y34_YF] , answer whether its phosphorylation enrichment meets or surpasses 0.8.
Result: y

Task: Please indicate if the recorded phosphorylation enrichment for KKMKCYHVGKV [HARS2_Y151_R150C] meets or exceeds 0.8.
Result: n

Task: Does phosphorylation enrichment meet or surpass 0.8 for QMWLKYSQSDL [SMC1A_Y714_R711W] ?
Result: y

Task: // inclusive: phosphorylation enrichment at least 0.8? input: YDEYRYRSVIK [CFTR_Y517]
Result: y

Further cases:
Task: Answer whether phosphorylation enrichment of INPIIYAFVVE [CCR5_Y297_G301V] is greater than or equal to 0.8.
Result: y

Task: I'd appreciate it if you could say whether HNVAIYEGFAL [ACTC1_Y168_P166A_YF] has phosphorylation enrichment at least equal to 0.8.
Result: y

----------
- system.under.test: Fes (UniProt P07332)
- Sequence (P07332 whole entry, looked up): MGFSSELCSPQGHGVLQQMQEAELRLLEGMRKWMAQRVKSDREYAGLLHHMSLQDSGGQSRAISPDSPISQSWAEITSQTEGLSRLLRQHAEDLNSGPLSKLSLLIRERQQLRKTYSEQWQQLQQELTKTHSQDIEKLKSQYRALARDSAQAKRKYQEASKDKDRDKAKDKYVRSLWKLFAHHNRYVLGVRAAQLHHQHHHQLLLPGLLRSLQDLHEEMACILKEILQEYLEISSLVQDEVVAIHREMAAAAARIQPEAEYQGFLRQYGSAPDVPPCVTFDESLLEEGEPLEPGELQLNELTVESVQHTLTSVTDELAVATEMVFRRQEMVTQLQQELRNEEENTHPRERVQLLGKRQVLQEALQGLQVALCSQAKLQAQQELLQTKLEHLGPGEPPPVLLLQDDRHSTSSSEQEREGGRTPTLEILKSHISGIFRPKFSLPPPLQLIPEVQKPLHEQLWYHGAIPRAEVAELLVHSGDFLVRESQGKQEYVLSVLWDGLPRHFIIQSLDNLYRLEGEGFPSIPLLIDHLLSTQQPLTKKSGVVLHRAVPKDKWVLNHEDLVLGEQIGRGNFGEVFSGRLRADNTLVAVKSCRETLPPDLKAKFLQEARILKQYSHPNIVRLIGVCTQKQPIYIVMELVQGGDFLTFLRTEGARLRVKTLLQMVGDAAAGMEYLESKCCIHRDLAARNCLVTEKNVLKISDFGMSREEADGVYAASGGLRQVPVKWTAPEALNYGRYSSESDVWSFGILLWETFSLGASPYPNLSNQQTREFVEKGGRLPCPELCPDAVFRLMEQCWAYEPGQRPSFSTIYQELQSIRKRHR
- experiment: phosphorylation enrichment, bacterial display (enrichment ratio); higher = better substrate or ligand; peptides without Tyr show the background
endpoint.label: phosphorylation enrichment
Reply with the value as a number alone.

Task: Note phosphorylation enrichment for the sequence shown: GRVLGYGTFGK [FLT4_Y853_A855T]
Result: 0.633

Task: Return phosphorylation enrichment for the following sequence: YCRHNYGVVES [HLA-DRB1_Y112]
Result: 0.798

Task: Provide one value: measured phosphorylation enrichment of FKEIVYAVSSD [DCX_Y70_G67E]
Result: 1.4

Task: State its phosphorylation enrichment: LTQRTYMLENA [GPAA1_Y49_S51L]
Result: 1.01

Task: Quote phosphorylation enrichment reported for RSAGKDDVFLI [MECP2_Y120_Y120D_YF] please.
Result: 1.16

Task: Consider the sequence KRISCYEASYQ [PFKFB3_Y194] . State its measured phosphorylation enrichment.
Result: 0.947

Further cases:
Task: Report measured phosphorylation enrichment; entry is RGDCMYAPLLG [AR_Y269]
Result: 0.885

Task: Please give the documented phosphorylation enrichment of SGGCSYGSGGG [KRT1_Y539_G537C]
Result: 0.916

Task: Please give measured phosphorylation enrichment of the following entry: ALAAPYVLYPS [CEFIP_Y1332_G1337S]
Result: 0.811

Task: Provide only the value of recorded phosphorylation enrichment for GKGGSYSKAES [HLA-E_Y341_W346S]
Result: 0.514

Task: Check the records and state phosphorylation enrichment for PPGRSYSPCDF [TNS1_Y793_Y796C_YF]
Result: 1.16

Task: Consider the sequence GHEYIYVDRMQ [PDGFRB_Y581_P584R] . State its measured phosphorylation enrichment.
Result: 0.695

----------
- system.under.test: SHP2-C SH2
- experiment: SH2 binding enrichment of the phosphorylated peptide, bacterial display (enrichment ratio); higher = better substrate or ligand; peptides without Tyr show the background
Recorded SH2 binding enrichment for the following sequences
The reply should be a number, written without any unit.

Previously resolved entries follow.
Task: Look up SH2 binding enrichment of QRAADYYSQQM [GBP6_Y333] and report it.
Result: 0.608

Task: Please give the documented SH2 binding enrichment of YAKSVYWENTL [NUP107_Y296]
Result: 0.894

Next:
Task: Answer with the recorded SH2 binding enrichment of RESSGYLRLAF [MEP1A_Y481] only.
Result: 5.52

Task: Give the reported SH2 binding enrichment for this sequence. AKGMKYLASKK [MET_Y1194]
Result: 0.557

Task: Please list SH2 binding enrichment recorded for the sequence GNHVSYYQSDG [CACNA1C_Y1757]
Result: 0.802

Task: Give reported SH2 binding enrichment value for DMDATYRPMYS [JUP_Y701]
Result: 0.521

Task: Find the measured SH2 binding enrichment of NHYKIYNLYAE [PTEN_Y68_C71Y] and report it.
Result: 0.698

Task: Kindly indicate its recorded SH2 binding enrichment. Item: CKSVHYDLVFL [COL22A1_Y37]
Result: 0.613

Task: Let me know recorded SH2 binding enrichment for HSGIFYKPESL [L2HGDH_Y103_YF] , thanks.
Result: 0.831

Task: Please report the measured SH2 binding enrichment for AFLEDYFTSTK [SRC_Y522_E527K]
Result: 1.07

Task: Output SH2 binding enrichment of YVFSFYHAFSG [ACTN4_Y265_S262F]
Result: 1.23

Task: Look up and report measured SH2 binding enrichment for this entry: TPIYPYLLPKS [PLD2_Y580_T577I]
Result: 0.855

Task: Hello, please tell me recorded SH2 binding enrichment for this one: EYITRYIDSLK [PSMA7_Y110_A112D]
Result: 1.1

Task: Specify reported SH2 binding enrichment for the sequence shown: REESTYLPLTS [ICAM3_Y527]
Result: 0.811

----------
SH2 binding enrichment for assorted sequences
- system.under.test: Grb2 SH2 (UniProt P62993)
- Sequence (P62993 whole entry, looked up): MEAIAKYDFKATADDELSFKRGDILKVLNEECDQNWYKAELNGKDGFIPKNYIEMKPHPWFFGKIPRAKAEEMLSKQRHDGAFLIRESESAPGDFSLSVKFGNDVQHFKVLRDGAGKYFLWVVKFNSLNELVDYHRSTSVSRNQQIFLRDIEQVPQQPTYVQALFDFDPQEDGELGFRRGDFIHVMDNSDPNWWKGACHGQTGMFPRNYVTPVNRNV
- experiment: SH2 binding enrichment of the phosphorylated peptide, bacterial display (enrichment ratio); higher = better substrate or ligand; peptides without Tyr show the background
# print the numeric value only

Task: Look up SH2 binding enrichment of MPAVTYTPAMR [MEGF10_Y895] and report it.
Result: 0.726

Task: Indicate its recorded SH2 binding enrichment; the sequence in question is RARIRYAQEHD [NSD1_Y1987]
Result: 0.663

Task: # return recorded SH2 binding enrichment for entry NNRVFYGNSDC [RS1_Y177_R182C]
Result: 1.16

Task: Give the measured SH2 binding enrichment for EKKQTYGSCRK [LACTB_Y473_R469K]
Result: 1.23

Task: Please look at this sequence and report its SH2 binding enrichment: LKLIQYHLIQQ [AKAP4_Y554_T557I]
Result: 1.51

Task: Supply recorded SH2 binding enrichment for MCITQYERESQ [PRNP_Y218] here.
Result: 0.935

Task: Respond only with SH2 binding enrichment recorded for KSSDVYVSYDC [SORL1_Y136_Y141C]
Result: 0.959

Task: Provide only the value of recorded SH2 binding enrichment for WAFNLYDINKD [KCNIP3_Y174]
Result: 0.718

Task: Give a short answer stating reported SH2 binding enrichment for IVEYAYNDKAV [PUM3_Y259_I264V] .
Result: 0.927

Task: Give the value of SH2 binding enrichment reported for the following: KKYPDYIQIAM [SGMS2_Y59]
Result: 1.04

***
Task: State its SH2 binding enrichment: DAGTDYVGISC [FREM2_Y2061_R2066C]
Result: 0.991

Task: Report SH2 binding enrichment, nothing else, for this sequence: HKGASYVFRLS [PTPRD_Y891]
Result: 1.56

Task: # return recorded SH2 binding enrichment for input SNMPTYSGHFT [GRIN2A_Y1224]
Result: 0.68

Task: Assign SH2 binding enrichment to the following record: TEYSQYMRRKN [MAX_Y73_I71S]
Result: 0.653

Task: Supply reported SH2 binding enrichment belonging to this sequence: LGKLTYPVGFW [NTHL1_Y177_I176T]
Result: 0.904

----------
- system.under.test: Jak2 (UniProt O60674)
- Sequence (O60674 whole entry, looked up): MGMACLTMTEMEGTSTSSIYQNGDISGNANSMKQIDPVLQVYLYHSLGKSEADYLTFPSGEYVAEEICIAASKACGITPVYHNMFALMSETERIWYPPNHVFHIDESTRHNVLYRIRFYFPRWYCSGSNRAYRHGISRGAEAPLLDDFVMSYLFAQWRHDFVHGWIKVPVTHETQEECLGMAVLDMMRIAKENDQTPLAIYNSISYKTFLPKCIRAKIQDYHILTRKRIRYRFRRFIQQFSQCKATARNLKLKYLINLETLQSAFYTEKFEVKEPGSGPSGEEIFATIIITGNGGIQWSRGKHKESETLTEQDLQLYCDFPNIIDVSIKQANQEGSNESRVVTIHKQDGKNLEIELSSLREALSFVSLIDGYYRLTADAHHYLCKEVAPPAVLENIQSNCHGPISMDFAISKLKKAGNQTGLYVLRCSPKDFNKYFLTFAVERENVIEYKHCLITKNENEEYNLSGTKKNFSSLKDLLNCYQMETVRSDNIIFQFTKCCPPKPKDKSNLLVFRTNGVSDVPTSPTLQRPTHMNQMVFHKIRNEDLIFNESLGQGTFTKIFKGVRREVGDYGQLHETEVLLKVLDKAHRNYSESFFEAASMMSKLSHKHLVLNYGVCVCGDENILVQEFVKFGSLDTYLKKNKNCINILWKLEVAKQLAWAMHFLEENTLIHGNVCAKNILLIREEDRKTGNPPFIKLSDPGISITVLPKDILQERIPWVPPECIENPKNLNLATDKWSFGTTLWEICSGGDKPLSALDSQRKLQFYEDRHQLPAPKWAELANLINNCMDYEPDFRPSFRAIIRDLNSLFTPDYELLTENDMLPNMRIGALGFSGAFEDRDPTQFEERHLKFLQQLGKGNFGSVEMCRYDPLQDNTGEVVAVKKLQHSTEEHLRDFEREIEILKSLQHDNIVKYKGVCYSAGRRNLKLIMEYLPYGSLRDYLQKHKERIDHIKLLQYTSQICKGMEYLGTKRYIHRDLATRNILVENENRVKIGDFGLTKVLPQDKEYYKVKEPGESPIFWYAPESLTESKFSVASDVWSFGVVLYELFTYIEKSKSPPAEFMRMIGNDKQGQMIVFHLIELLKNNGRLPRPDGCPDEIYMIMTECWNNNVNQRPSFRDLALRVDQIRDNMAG
- experiment: phosphorylation enrichment, bacterial display (enrichment ratio); higher = better substrate or ligand; peptides without Tyr show the background
Binning scheme for phosphorylation enrichment: bin 1 = under 0.7, bin 2 = from 0.7 up to 1, bin 3 = 1 and over

Worked examples follow.
Task: Just checking, what class would you give GIVEEYQLPYY [BMPR1A_Y453] here?
Result: bin 3

Task: Which category does the recorded phosphorylation enrichment put DAGTDYVGISC [FREM2_Y2061_R2066C] in?
Result: bin 2

Task: Field: class (phosphorylation enrichment) — entry: MGGSVYFSYPD [HIKESHI_Y55]
Result: bin 3

Task: Category of GSPAPYRRRKR [MBD1_Y403_P401A] :
Result: bin 1

Task: Hey, which category is EVESPYEVHDF [GIGYF2_Y1168_YF] in, do you know?
Result: bin 3

Task: Pick a category. Item: SRASFYRKGGC [ALK_Y1283_Y1278S_YF]
Result: bin 1

Consider now this further sequence.
Task: Note: place this sequence into its band. Item: GHEEFYSTHPH [LRRK2_Y1402_R1398H]
Result: bin 1

----------
- system.under.test: c-Src SH2
- experiment: SH2 binding enrichment of the phosphorylated peptide, bacterial display (enrichment ratio); higher = better substrate or ligand; peptides without Tyr show the background
Outcome label depends on SH2 binding enrichment relative to 0.6: at/above gives y, below gives n.

Reference set (10 entries):
Task: Check if SH2 binding enrichment >= 0.6 (inclusive). Item: LGKLTYPVGFW [NTHL1_Y177_I176T]
Result: n

Task: Is it the case that MFNPMYALFRT [HUWE1_Y4078] has SH2 binding enrichment reaching or exceeding 0.6?
Result: y

Task: Reported SH2 binding enrichment reaches at least 0.6 for METKGYHSLPE [NR3C2_Y6] ?
Result: y

Task: Quick check: does PLDNLYAEPAV [PRPS1_Y146_V142L] have SH2 binding enrichment greater than or equal to 0.6?
Result: n

Task: Tell me whether SH2 binding enrichment is at least 0.6 here: IVAEYYDNLPH [DEGS1_Y284_A280V]
Result: y

Task: Hi, just wondering whether LNERHYGGLTD [PGAM2_Y92_G97D] shows SH2 binding enrichment of 0.6 or higher.
Result: n

Task: Please tell me: is the sequence TTIVSYRASQP [MKI67_Y1737_K1734I] at or over 0.6 in terms of SH2 binding enrichment?
Result: n

Task: Is the recorded value of SH2 binding enrichment equal to or greater than 0.6 for this sequence? YPLELYERVRI [PRKCG_Y312_M317I]
Result: y

Task: Is reported SH2 binding enrichment greater than or equal to 0.6 here: ILTLKYPIKHG [ACTA1_Y71_E74K]
Result: y

Task: # check: SH2 binding enrichment of LITTLYIGFLD [KCNQ1_Y267_G272D] is greater than or equal to 0.6
Result: y

More entries:
Task: Could you verify whether the entry CTNIHYNFMCN [TP53_Y234_T231N_YF] shows SH2 binding enrichment of no less than 0.6?
Result: y

Task: Given VSSSDYFSFVL [USP24_Y2138_Y2134S] , state whether its SH2 binding enrichment is at least 0.6.
Result: n

Task: // inclusive: SH2 binding enrichment at least 0.6? input: GHNDVYILEHV [GRIN2A_Y1423_S1425L]
Result: n
